B1: Caulobacter ParB omega fusion; a variant is named by its letters at X, in order, B8GW30 (parent)
chain: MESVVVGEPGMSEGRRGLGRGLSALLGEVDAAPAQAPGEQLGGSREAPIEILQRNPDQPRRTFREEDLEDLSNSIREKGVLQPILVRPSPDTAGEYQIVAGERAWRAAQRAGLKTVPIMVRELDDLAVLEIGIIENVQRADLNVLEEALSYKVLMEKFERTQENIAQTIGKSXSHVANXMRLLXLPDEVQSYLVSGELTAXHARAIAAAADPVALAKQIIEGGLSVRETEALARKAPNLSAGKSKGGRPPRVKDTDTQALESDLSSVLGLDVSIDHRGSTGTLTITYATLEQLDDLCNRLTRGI

- Variants of: B1
- assay-notes: one-hybrid fitness for binding parS DNA (scaled: cognate 1, non-cognate 0); higher = stronger binding
- measurement-context: with parS DNA site
Whole data set: some 81,000 sequences, median “one-hybrid fitness for binding parS DNA” near -0.17, cut for the highest 2% near 0.51. The full list was thinned out, with the highest values kept by preference.
quantity: one-hybrid fitness for binding parS DNA

variant-label: RSRS
observed-result: 0.913

variant-label: APPD
observed-result: ≤ 0.2

variant-label: LAFG
observed-result: ≤ 0.2

variant-label: RIWG
observed-result: 0.985

variant-label: RPRS
observed-result: ≤ 0.2

Challenge: Given `PPTK` , state its recorded one-hybrid fitness for binding parS DNA.
Response given: ≤ 0.2

Challenge: Please answer likewise for `RCYS`
Response given: 1
